Reference source: patent US20210253725A1

Listed below: Cellular binding assay [RFU] values for each entry.
Biological target: T1, CD27 expressed on the cell surface of HT1080_CD27 cells (human, UniProt P26842 20-260)
T1 construct: whole, on cells; species not restated for the HT1080 transfectant
T1 sequence (looked up): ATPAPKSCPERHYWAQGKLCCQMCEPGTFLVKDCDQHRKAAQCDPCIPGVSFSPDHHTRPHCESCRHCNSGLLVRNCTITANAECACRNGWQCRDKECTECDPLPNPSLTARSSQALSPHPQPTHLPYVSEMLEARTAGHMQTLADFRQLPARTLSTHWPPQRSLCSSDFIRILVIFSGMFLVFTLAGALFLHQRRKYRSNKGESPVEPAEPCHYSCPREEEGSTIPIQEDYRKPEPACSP
Assay: HT1080_CD27 cells, imaging; further: test concentration or dose not given here
Number only, in RFU; omit the unit.

Recorded Cellular binding assay [RFU], per entry:
P018.S.09.A.F06 (antibody, V domains shown, V regions on human Ig constant parts; also called AB27_158) VH: QSVEESGGRLVTPGGSLTLTCSVSGIDLSSYAMNWVRQAPGKGLEWIGIISTGGSTYYANWAKGRFTISKTSTTVDLKITSPTTEDTATYICARDVGGTTVPYYFDLWGPGTLVTVSS VL: AYDMTQTPASMEVAVGGTVTIKCQASESISSWLAWYQQKPGQPPKPLIYEASRLASGVPSRFKGSGSGTEFTLTISGVESADAATYYCQQGYGSSDVHNIFGGGTEVVVK ... 218
P018.S.10.A.B02 (antibody, V domains shown, V regions on human Ig constant parts; also called AB27_167) VH: QSVEESGGRLVTPGGSLTLSCTVNGFSLSSHGVSWVRQAPGKGLEWIGIIYVISGHAYYASWAKGRFTISKTSTTVDLKIASPTTEDTATYFCARGNYGSDSGPNFTRLDLWGQGTLVTVSS VL: AQVLTQTPSPVSATVGGTLTINCQASQSLYNNDYLAWYQQKPGQPPKLLIYLASTLASGVSSRFKGSGSGTQFTLTISGVQSDDAATYYCQGEFSCSSGDCLAFGGGTEVVVK ... 249

Now examine the next entry.
Q: Entry P018.S.05.A.A06 (antibody, V domains shown, V regions on human Ig constant parts; also called AB27_82) VH: QSLEESGGRLVTPGTPLTLTCTVSGIDLNNNAMSWVRQAPGEGLEWIGIISTAGTTTYASWTKGRFTISKTSTTVDLKITSPTTEDTATYFCARAAYFSYGYINLWGQGTLVTVSS VL: DIVMTQTPASVEAAVGGTVTIKCQASQNIGNALAWYQQKSGQPPKLLIYSASTLASGVPSRFKGSGSGTEFTLTISDLESADATTYFCQSYVYSDGNVFGGGTEVVVK has what Cellular binding assay [RFU]?
Ans: 374
